- Study Target: T1, mouse GLP-1 receptor (mouse, UniProt O35659 22-463)
- T1 sequence (looked up): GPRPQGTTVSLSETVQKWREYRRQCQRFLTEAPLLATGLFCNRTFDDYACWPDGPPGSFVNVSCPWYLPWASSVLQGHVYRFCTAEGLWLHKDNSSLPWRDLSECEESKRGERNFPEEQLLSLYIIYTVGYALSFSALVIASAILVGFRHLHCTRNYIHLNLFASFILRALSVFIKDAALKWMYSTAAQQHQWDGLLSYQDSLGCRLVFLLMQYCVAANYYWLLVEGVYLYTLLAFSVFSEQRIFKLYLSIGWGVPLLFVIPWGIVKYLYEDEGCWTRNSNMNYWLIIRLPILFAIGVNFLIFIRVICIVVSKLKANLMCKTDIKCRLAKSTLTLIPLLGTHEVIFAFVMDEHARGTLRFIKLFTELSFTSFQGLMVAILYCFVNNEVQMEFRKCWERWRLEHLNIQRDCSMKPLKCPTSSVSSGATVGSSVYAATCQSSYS
- Measurement Protocol: cell-based or functional assay
No end group written: not given here. asialo oligosaccharide = asialo (digalactose) oligosaccharide chain
For each entry below, report its Relative Activity (cAMP synthesis, EC50 relative to GLP-1 = 1) value.

query: Dear colleague, I am looking for the recorded Relative Activity (cAMP synthesis, EC50 relative to GLP-1 = 1) of the following binder: HAEGTFTSDVSSYLEGQAAKEFIAWLVC(asialo oligosaccharide)GRG [34Cys GLP-1-asialo]
result: 2.2 relative (GLP-1 = 1)

query: Quick one: HAEGTFTSDC(disialo oligosaccharide)SSYLEGQAAKEFIAWLVKGRG [16Cys GLP-1-disialo]
result: < 0.1 relative (GLP-1 = 1)

query: Also need HAEGTFTSDVSSYLEGQAAKEFIAWLVC(disialo oligosaccharide)GRG [34Cys GLP-1-disialo] , thanks.
result: 0.7 relative (GLP-1 = 1)
